molecular target: androgen receptor (AR) (Homo sapiens); experiment: Degradation of androgen receptor (AR) protein in VCaP cells by Western blot; format: cell-based; conditions: percentage of degraded AR at 100 nM, VCaP cells, 16 h
Sequence (P10275 whole entry): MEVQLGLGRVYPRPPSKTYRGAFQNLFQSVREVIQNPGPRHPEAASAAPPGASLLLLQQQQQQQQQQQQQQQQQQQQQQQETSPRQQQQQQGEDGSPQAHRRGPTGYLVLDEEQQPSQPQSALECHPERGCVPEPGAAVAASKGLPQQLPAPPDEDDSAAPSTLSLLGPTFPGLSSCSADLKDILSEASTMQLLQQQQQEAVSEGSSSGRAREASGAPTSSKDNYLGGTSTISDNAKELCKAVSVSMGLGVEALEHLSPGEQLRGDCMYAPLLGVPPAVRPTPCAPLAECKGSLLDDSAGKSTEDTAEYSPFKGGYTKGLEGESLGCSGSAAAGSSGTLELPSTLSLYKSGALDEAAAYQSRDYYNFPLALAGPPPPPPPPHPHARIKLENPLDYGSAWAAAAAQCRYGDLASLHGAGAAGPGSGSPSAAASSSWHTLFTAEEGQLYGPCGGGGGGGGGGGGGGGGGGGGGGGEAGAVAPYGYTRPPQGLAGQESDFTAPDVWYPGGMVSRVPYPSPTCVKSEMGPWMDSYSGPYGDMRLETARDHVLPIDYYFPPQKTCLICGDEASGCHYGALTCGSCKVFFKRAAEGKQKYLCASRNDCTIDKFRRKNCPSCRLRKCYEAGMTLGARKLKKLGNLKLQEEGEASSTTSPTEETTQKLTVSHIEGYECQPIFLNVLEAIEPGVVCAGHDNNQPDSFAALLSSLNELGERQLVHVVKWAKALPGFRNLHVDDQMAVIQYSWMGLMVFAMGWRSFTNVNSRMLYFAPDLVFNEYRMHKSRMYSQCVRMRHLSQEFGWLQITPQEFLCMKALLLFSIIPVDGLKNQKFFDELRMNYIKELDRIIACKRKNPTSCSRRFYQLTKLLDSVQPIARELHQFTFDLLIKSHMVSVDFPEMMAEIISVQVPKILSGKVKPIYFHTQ
assay-metric: inhibition at 0.1 µM

Completed entries (count: 3):
| molecule | inhibition at 0.1 µM |
| --- | --- |
| CC1(C)[C@H](NC(=O)c2ccc(N3CC4CN(CC5CN(c6cc7c(cc6F)C(=O)N(C6CCC(=O)NC6=O)C7=O)C5)CC4C3)nn2)C(C)(C)[C@H]1Oc1ccc(C#N)c(Cl)c1 (stereo partly shown) | 50 to 79% |
| N#Cc1ccc(O[C@H]2CC[C@H](NC(=O)c3ccc(N4CCC(CN5CCCN(c6ccc7c(c6)C(=O)N(C6CCC(=O)NC6=O)C7=O)CC5)CC4)cc3)CC2)cc1Cl (stereo partly shown) | 25 to 49% |
| CN(C1CCN(c2ccc3c(c2)C(=O)N(C2CCC(=O)NC2=O)C3=O)CC1)C1CC(C#Cc2ccc3c(n2)CN([C@H]2C(C)(C)[C@H](Oc4ccc(C#N)c(Cl)c4)C2(C)C)C3=O)C1 (stereo partly shown) | 25 to 49% |

For every listed record, write down its inhibition at 0.1 µM.
1. CC1(C)[C@H](Oc2ccc(C#N)c(Cl)c2)C(C)(C)[C@H]1N1Cc2nc(C#CC3CN(C4CCN(c5cc6c(cc5F)C(=O)N(C5CCC(=O)NC5=O)C6=O)CC4)C3)ccc2C1=O (stereo partly shown)
2. N#Cc1ccc(O[C@H]2CC[C@H](NC(=O)c3cnc(N4C[C@H]5C[C@@H](N6CCN(c7cc8c(cc7F)C(=O)N(C7CCC(=O)NC7=O)C8=O)CC6)C[C@H]5C4)cn3)CC2)cc1Cl (stereo partly shown)
3. N#Cc1ccc(O[C@H]2CC[C@H](NC(=O)c3ccc(N4CCC(CN5CC6CN(c7ccc8c(c7)C(=O)N(C7CCC(=O)NC7=O)C8=O)CC6C5)CC4)nn3)CC2)cc1Cl (stereo partly shown)
4. N#Cc1ccc(O[C@H]2CC[C@H](NC(=O)c3cnc(N4CC5CN(CC6CCN(c7cc8c(cc7F)C(=O)N(C7CCC(=O)NC7=O)C8=O)CC6)CC5C4)cn3)CC2)cc1Cl (stereo partly shown)
5. N#Cc1ccc(O[C@H]2CC[C@H](NC(=O)c3cnc(N4CCN([C@@H]5C[C@@H]6CN(c7ccc8c(c7)C(=O)N(C7CCC(=O)NC7=O)C8=O)C[C@@H]6C5)CC4)nc3)CC2)cc1Cl (stereo partly shown)
6. CC1(C)[C@H](NC(=O)c2cnc(N3C[C@@H]4[C@@H](CN5CCN(c6cc7c(cc6F)C(=O)N(C6CCC(=O)NC6=O)C7=O)CC5)[C@@H]4C3)cn2)C(C)(C)[C@H]1Oc1ccc(C#N)c(Cl)c1 (stereo partly shown)

Outgoing:
["50 to 79%", "50 to 79%", "25 to 49%", "> 80%", "< 25%", "50 to 79%"]

For reference, reported inhibition at 0.1 µM for N#Cc1ccc(O[C@H]2CC[C@H](NC(=O)c3nnc(N4CC5(CCN(CC6CCN(c7ccc8c(c7)C(=O)N(C7CCC(=O)NC7=O)C8=O)CC6)CC5)C4)s3)CC2)cc1Cl (stereo partly shown) stands at 50 to 79%
